# subject.of.test: T1, SARS-CoV-2 nucleocapsid protein (SARS-CoV-2, UniProt P0DTC9 1-419)
# T1 construct: also called N protein
# assay.text: ELISA on recombinant protein
assay.metric: binding result

binder | assay.metric | measured
FD 4C (antibody, V domains shown) VH: EVQLVESGPGLVKPSQTLSLTCTVSGGSISSGGYYWSWIRQHPGKGLEWIGYIYYSGSTYYNPSLKSRVTISVDTSKNQFSLKLSSVTAADTAVYYCARVRSSSSWYFDYWGQGTLVTVSS VL: QSVLTQPASVSGSPGQSITISCTGTSSDVGGYNYVSWYQQHPGKAPKLMIYDVSKRPSGVSNRFSGSKSGNTASLTISGLQAEDEADYYCSSYTSKWVFGGGTKLTVL | binding result | binds
EZ 8C (antibody, V domains shown) VH: EVQLVESGGGLVKPGGSLRLSCAASGFTFSSYTMNWVRQAPGKGLEWVSSFIANSDYKFYADSVKGRFTISRDNAKSSLYLQMNSLRAEDTAVYYCARELTSYGSHDAFDIWGQGTMVTVSS VL: QSALTQPASVSGSPGQSITISCTGTSSDVGGYNYVSWYQQHPGKAPKLLIYEVTNRPSGVSDRFSGSKSANVASLTISGLQAEDEADYYCSSYTTTDSVVFGGGTKLTVL | binding result | binds
EY 2A (antibody, V domains shown) VH: QVQLVESGAEVTKPGDSLIISCKGSGYAFTQYWIGWVRQKPGKGLEWMAMVYPDSSAVFAGGASGVRYRPPFQGQVTISADTSVNTAYLQWDSLKASDTAMYYCVRQERGSNTWYAGNSWGQGTLVTVSS VL: DIVMTQSPLSLPVSPGEPASISCRSSQSLLHTDAYNYLDWYLQKPGQSPQLLIYLGSTRASGVPDRFSGSGSGTDFTLKISSVKAEDVGVYYCMQALQTPGTFGQGTKLEIK | binding result | binds
